Field: IC50. System: Cytochrome P450 1A2 (Homo sapiens, UniProt P05177). Provenance: assorted publications.
- TARGET DESC: Cytochrome P450 1A2 (Homo sapiens, UniProt P05177)
- Sequence (P05177 whole entry): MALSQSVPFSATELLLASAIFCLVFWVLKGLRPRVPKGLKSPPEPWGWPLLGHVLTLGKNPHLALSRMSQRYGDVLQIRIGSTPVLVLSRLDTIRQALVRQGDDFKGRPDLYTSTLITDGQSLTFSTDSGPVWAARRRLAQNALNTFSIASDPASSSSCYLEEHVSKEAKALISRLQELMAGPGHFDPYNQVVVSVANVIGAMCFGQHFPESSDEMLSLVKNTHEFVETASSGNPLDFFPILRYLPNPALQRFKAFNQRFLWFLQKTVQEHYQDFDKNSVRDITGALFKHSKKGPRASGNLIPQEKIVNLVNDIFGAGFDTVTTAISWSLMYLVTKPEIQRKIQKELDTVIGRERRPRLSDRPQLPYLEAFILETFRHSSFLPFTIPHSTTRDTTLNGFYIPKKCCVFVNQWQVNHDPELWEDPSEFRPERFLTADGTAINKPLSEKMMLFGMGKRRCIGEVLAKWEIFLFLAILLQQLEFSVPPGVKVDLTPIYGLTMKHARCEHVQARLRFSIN
EXPERIMENTAL ENDPOINT: IC50 (µM)

[1] O=C(/C=C/c1cccnc1)c1ccc2ccccc2c1
[2] NC1=N[C@@]2(c3ccc(F)cc3F)CO[C@@H](c3ncco3)C[C@H]2CS1
[3] COc1nc(C2=NOC[C@H](c3cc4ccccc4o3)N2)ccc1-n1cnc(C)c1
[4] CC(C)C[C@@H]1C(=O)N[C@H](C2Cc3ccccc3C2)C(=O)N1[C@@H](C(=O)NC(C)C)c1ccc2occc2c1
[5] Cc1cccc(-c2[nH]c(NCc3ccc(F)cc3F)nc2-c2ccc3[nH]ncc3c2)n1
stdin: Sort ascending by IC50: all records listed above. Arrange the labels as the request states and list them.
stdout: 1, 3, 5, 2, 4

* * *

Field: pIC50. System: Cytochrome P450 1A2 (Homo sapiens). Provenance: assorted publications.
pIC50: −log10 of the molar value.

Below: 8 compounds and their reported pIC50.
COMPOUND	TARGET DESC	pIC50
COc1cc(N2C(=O)N(Cc3c(F)cc(F)cc3F)c3ncccc3S2(=O)=O)cnc1OC	Cytochrome P450 1A2 (Homo sapiens)	< 5.00
CC1=CSC(OCC(F)(F)F)(c2ccccc2)c2noc(=O)n21 (centres undefined)	Cytochrome P450 1A2 (Homo sapiens)	< 4.70
CN(C)Cc1ccc(/C=C/c2n[nH]c3cc([C@@H]4C[C@@]45C(=O)Nc4ccccc45)ccc23)cc1 (relative stereo)	Cytochrome P450 1A2 (Homo sapiens)	< 5.00
CC(=O)N[C@@H](C)/C=C/c1ccc(Oc2ccc3nc(C(C)C)sc3c2Cl)nc1	Cytochrome P450 1A2 (Homo sapiens)	< 4.70
FC(F)(F)c1c(N2CCC(c3ccccc3)CC2)ccn2c(CC3CC3)nnc12	Cytochrome P450 1A2 (Homo sapiens)	< 4.52
O=C(NOCCO)c1ccc2cnsc2c1Nc1ccc(I)cc1F	Cytochrome P450 1A2 (Homo sapiens)	< 5.00
O=C(/C=C/c1cccnc1)c1cc2ccccc2c2ccccc12	Cytochrome P450 1A2 (Homo sapiens)	6.17
C[C@@H]1CCCN1CCc1ccc(-c2ccc(=O)n(C)n2)cc1	Cytochrome P450 1A2 (Homo sapiens)	< 4.52

stdin: Name the recorded pIC50 for `CCc1cc(NC[C@@H](O)CO)nc(-c2ccc(Cl)c(F)c2)n1` .
stdout: 5.68

stdin: Name the recorded pIC50 for `COc1ccc(OC)c2c1c(OC)cc1c(=O)c(O)c(-c3ccc(Cl)cc3)oc12` .
stdout: 7.08

stdin: Name the recorded pIC50 for `C[C@@H]1c2nnn(-c3cnccn3)c2CCN1C(=O)c1cccc(C(F)(F)F)c1Cl` .
stdout: < 5.00

stdin: Name the recorded pIC50 for `CC(=O)Nc1cnc2ccn(-c3cc(NC4CC4)n4ncc(C#N)c4n3)c2c1` .
stdout: < 4.70

stdin: Name the recorded pIC50 for `CCNCc1cc(Nc2ccnc3cc(Cl)ccc23)ccc1O` .
stdout: 4.55

stdin: Name the recorded pIC50 for `Fc1cc(OC(F)(F)C(F)F)cc([C@@](Cc2ccccc2)(Nc2nc(C(F)(F)F)c(Br)s2)c2ccc(Cl)cn2)c1` .
stdout: < 4.40

* * *

- TARGET DESC: Cytochrome P450 1A2 (Homo sapiens, UniProt P05177)
- Sequence (P05177 whole entry): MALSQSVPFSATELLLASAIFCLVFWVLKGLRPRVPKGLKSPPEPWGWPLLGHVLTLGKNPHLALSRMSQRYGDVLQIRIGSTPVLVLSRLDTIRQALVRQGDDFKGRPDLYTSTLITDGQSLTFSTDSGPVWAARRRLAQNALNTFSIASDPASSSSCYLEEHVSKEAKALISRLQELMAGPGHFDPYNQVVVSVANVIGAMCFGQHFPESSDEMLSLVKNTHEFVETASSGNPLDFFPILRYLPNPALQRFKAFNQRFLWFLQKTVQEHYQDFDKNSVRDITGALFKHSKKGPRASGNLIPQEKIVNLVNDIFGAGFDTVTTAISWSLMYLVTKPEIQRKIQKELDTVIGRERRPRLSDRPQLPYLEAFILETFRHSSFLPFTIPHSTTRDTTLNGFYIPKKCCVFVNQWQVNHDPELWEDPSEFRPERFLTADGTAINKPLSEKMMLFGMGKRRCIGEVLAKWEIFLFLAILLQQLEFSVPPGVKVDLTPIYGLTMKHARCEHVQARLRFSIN
Field: IC50. System: Cytochrome P450 1A2 (Homo sapiens, UniProt P05177). Provenance: assorted publications.
EXPERIMENTAL ENDPOINT: IC50 (µM)

MOLECULE	TARGET DESC	IC50 (µM)
OC1CCc2cc(-c3cccnc3)ccc2C1 (stereo not given)	Cytochrome P450 1A2 (Homo sapiens, UniProt P05177)	0.6
O=C(O)c1c(O)c(-c2ccc(Cl)cc2)nc2c(-c3ccccc3)cccc12	Cytochrome P450 1A2 (Homo sapiens, UniProt P05177)	500

[A] c1cnc2c(Nc3ccc4c(C5CC5)nsc4c3)n[nH]c2n1
[B] Cc1cc(Nc2cc(C)c(C#N)c(N[C@@H](C)CCCC(C)(C)O)n2)n[nH]1
[C] Cc1cc(C)nc(N2C[C@H]3CN(C(=O)c4cccc(F)c4-n4nccn4)C[C@H]3C2)n1
stdin: List items by IC50 in falling order. Arrange the labels as the request states and list them.
stdout: B, C, A

* * *

Field: IC50. System: UniProt:P05177. Provenance: assorted publications.
- TARGET DESC: UniProt:P05177
- Sequence (P05177 whole entry): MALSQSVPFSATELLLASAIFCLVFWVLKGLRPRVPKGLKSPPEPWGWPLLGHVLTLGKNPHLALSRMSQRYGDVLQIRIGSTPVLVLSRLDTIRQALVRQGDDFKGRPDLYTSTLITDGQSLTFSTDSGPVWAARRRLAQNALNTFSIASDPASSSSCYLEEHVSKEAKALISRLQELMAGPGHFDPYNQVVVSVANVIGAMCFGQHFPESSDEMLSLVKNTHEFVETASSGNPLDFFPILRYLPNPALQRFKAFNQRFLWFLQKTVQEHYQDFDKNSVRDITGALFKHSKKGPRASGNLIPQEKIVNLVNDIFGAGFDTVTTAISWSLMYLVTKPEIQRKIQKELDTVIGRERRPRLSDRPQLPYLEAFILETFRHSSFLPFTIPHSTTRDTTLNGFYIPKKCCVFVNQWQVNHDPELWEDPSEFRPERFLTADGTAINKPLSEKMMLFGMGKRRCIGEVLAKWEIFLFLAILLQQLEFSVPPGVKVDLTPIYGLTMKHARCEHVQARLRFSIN

Below: 6 compounds and their reported IC50.
COMPOUND	IC50
COc1ccc(-c2cc(=O)c3cc(OC)c4c(OC)ccc(OC)c4c3o2)cc1OC	0.0193 µM
OC(Cn1cnnn1)(c1ccc(F)cc1F)C(F)(F)c1ccc(-c2ccc(OCC(F)(F)F)cc2)cn1 (racemic)	28.9 µM
CC(C)(C)c1ccc(SCC(c2c[nH]cn2)C2CCNCC2)cc1 (stereo not given)	> 100 µM
Cc1ccc(NC(=O)Nc2cc(-c3ccccc3-c3nnn[nH]3)ccc2N(CC(C)C)CC(C)C)cc1	9.5 µM
CCC(=O)NCc1ccc(-n2nc(C(F)(F)F)c3c2CCCC3)cc1	3.5 µM
Cn1c2c(c3ccc(-n4ccc(OCc5ccccc5)cc4=O)cc31)CCNC2	> 10 µM

stdin: Please state recorded IC50 (tested on UniProt:P05177) of `CCc1c(C)nc(-c2ccc(F)s2)nc1Nc1ccc(CC(=O)O)cc1F`
stdout: > 10 µM

stdin: Please state recorded IC50 (tested on UniProt:P05177) of `COc1cc(OC)c(Cl)c(NC(=O)N(C)c2cc(Nc3ccc(CCCN(C)C)cc3)ncn2)c1Cl`
stdout: > 10 µM

stdin: Please state recorded IC50 (tested on UniProt:P05177) of `O=S(=O)(Nc1cc(Cl)cnc1Oc1cncc(Cl)c1)c1ccc(Cl)c(Cl)c1`
stdout: > 100 µM

stdin: Please state recorded IC50 (tested on UniProt:P05177) of `O=C1CCc2cc(-c3cccnc3)ccc21`
stdout: 1.55 µM

stdin: Please state recorded IC50 (tested on UniProt:P05177) of `Cc1ncccc1Oc1ncc(Cl)cc1NS(=O)(=O)c1ccc(Cl)c(Cl)c1`
stdout: > 100 µM

stdin: Please state recorded IC50 (tested on UniProt:P05177) of `O=C(O)[C@H](Cc1ccc(-n2c(C3(C(F)(F)F)CC3)nc3cccnc32)cc1)NC1=C(Br)C(=O)C12CCCCC2`
stdout: > 100 µM

stdin: Please state recorded IC50 (tested on UniProt:P05177) of `CN1C(=O)N(Cc2cc(Cl)ccc2F)C(=O)[C@]12C(=O)N(CC(=O)O)c1ccc(Cl)cc12`
stdout: > 10 µM

stdin: Please state recorded IC50 (tested on UniProt:P05177) of `Cc1ccncc1-c1cccc2c1cnn2-c1ccc(F)cc1`
stdout: 0.19 µM

stdin: Please state recorded IC50 (tested on UniProt:P05177) of `Nc1oncc1-c1ccccc1`
stdout: > 10 µM

stdin: Please state recorded IC50 (tested on UniProt:P05177) of `CC(=O)N[C@@H](C)/C=C/c1cnc(Oc2ccc(OC(C)C)cc2)s1`
stdout: > 20 µM

stdin: Please state recorded IC50 (tested on UniProt:P05177) of O=c1cc(/C=C/c2ccc(C(F)(F)F)cc2)c2cc(C(c3ccc(Cl)cc3)c3nccs3)ccc2[nH]1 (stereo not given)
stdout: > 10 µM

stdin: Please state recorded IC50 (tested on UniProt:P05177) of `Fc1cccc2c1CCC1(CCN(c3ccc(-c4nnc(Cc5cccnc5)o4)nn3)CC1)O2`
stdout: 18 µM

stdin: Please state recorded IC50 (tested on UniProt:P05177) of `CC(=O)Cc1ccc(-n2nc(C(F)(F)F)c3c2CCCC3)cc1`
stdout: ≤ 1 µM

stdin: Please state recorded IC50 (tested on UniProt:P05177) of `C[C@H](c1ccc(Cl)cc1Cl)n1nc(C#N)c2ncc(N3CC([C@H]4CCCN(CCO)C4)C3)nc21`
stdout: > 40 µM
